Entries annotated with measured pKd
- Tgt: T1, Human BCMA (human, UniProt Q02223 1-54, limits assumed)
- T1 construct: Soluble analyte in SPR; construct not described; also called huBCMA; B-cell maturation antigen
- T1 sequence (looked up): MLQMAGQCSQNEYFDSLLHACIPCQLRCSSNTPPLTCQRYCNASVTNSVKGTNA
- Assay details: SPR, IgG immobilised, 37 C
// pKd is dimensionless: -log10 of concentration (M)

Below, 4 binders whose answers are already recorded.
// recorded pKd for L3.PY/L1.PS/H3.AQ (antibody, V domains shown, IgG) VH: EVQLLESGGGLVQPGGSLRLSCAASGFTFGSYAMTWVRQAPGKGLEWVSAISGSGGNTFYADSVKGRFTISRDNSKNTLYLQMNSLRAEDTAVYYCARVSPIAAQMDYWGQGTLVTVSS VL: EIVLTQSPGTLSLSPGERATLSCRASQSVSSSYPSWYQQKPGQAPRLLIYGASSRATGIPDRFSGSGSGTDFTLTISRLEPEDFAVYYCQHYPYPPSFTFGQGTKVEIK : 9.26

// recorded pKd for L3.PY/L3.KF/H2.QL (antibody, V domains shown, IgG) VH: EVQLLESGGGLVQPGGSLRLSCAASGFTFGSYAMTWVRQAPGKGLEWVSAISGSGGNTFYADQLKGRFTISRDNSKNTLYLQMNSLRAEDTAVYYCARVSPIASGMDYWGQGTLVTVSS VL: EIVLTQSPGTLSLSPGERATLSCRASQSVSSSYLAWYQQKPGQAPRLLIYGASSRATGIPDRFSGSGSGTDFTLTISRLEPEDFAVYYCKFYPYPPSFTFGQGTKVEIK : 9.22

// recorded pKd for L3.PY/L1.AH/H3.AQ (antibody, V domains shown, IgG) VH: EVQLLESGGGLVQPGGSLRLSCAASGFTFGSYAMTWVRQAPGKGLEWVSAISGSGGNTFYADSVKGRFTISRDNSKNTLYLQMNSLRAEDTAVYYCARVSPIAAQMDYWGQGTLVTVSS VL: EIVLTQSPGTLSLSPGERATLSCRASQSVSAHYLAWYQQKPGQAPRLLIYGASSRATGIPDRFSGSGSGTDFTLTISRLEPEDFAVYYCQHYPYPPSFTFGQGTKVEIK : 9.19

// recorded pKd for L3.PY/L1.PH/H2.HA (antibody, V domains shown, IgG) VH: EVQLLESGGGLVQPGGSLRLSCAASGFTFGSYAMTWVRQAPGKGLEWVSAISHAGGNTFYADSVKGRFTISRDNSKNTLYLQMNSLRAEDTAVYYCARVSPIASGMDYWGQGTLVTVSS VL: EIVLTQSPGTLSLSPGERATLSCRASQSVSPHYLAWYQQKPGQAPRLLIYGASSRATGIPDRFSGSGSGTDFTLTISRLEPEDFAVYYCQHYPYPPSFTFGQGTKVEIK : 9.31

From here, focus on the item given below.
// recorded pKd for L3.PY/H3.TAQ (antibody, V domains shown, IgG) VH: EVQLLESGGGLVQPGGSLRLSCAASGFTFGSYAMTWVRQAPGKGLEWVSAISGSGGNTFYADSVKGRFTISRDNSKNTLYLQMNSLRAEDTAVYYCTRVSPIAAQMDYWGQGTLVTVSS VL: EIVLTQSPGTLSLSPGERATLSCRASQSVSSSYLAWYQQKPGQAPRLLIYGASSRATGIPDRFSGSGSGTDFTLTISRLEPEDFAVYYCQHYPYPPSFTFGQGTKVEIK : 9.43
